The following are reported IC50 results, target or system UniProtKB Q13370.
Sequence (Q13370 whole entry): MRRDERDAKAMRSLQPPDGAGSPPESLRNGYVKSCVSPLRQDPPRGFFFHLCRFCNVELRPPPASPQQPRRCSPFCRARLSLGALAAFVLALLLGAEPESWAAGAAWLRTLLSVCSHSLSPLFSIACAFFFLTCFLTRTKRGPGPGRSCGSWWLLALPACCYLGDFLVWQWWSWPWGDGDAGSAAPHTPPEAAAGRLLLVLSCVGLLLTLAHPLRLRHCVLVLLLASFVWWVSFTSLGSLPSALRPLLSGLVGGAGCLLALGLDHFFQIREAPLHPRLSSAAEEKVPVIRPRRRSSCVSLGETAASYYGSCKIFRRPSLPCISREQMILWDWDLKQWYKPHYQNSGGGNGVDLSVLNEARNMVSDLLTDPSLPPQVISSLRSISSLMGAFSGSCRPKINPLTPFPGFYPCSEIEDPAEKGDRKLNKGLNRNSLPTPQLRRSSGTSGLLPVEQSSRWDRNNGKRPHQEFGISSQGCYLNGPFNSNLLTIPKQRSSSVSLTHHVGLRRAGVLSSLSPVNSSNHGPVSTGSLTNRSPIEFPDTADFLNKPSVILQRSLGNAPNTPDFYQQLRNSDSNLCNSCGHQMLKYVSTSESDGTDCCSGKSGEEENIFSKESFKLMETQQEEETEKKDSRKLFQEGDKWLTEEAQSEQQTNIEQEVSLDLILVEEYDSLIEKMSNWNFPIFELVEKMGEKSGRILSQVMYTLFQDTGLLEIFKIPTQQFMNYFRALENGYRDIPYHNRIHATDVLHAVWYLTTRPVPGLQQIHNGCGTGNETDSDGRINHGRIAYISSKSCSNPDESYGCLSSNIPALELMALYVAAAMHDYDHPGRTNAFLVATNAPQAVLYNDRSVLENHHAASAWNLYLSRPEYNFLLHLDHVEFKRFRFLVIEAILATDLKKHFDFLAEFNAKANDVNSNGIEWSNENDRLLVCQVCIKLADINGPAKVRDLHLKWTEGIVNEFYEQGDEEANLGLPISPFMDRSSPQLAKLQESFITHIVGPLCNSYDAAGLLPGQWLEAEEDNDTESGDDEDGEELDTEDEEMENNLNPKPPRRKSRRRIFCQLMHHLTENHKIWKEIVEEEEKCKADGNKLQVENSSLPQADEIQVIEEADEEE
All answers are understood in µM, so give the number only.

Some solved cases for reference:
| Smiles Structure | IC50 [µM] |
| --- | --- |
| Cc1ccc(-c2ccc(C3=NNC(=O)CC3)cc2F)cc1 | 0.215 |
| Nc1cccc(-c2ccc(C3=NNC(=O)CC3)cc2F)c1 | 0.076 |
| COc1ccc(-c2ccc(C3=NNC(=O)CC3)cc2F)cc1 | 0.31 |
| Cc1ccc(C)c(-c2ccc(C3=NNC(=O)CC3)cc2F)c1 | 0.23 |

INPUT: Quick check: IC50 on UniProtKB Q13370, item `O=C1CCC(c2ccc(-c3cccc(F)c3F)c(F)c2)=NN1` ?
OUTPUT: 0.034

INPUT: Quick check: IC50 on UniProtKB Q13370, item `Cc1cc(C2=NNC(=O)CC2)ccc1-c1ccccc1F` ?
OUTPUT: 0.15
